# Test system: phospholipase/lipase MPIaG
# Test Parameters: organic solvent 30%
Measured Parameter: Enzyme activity relative value (%)
Field format: number, assumed %, no unit text.

## Input Return reported Enzyme activity relative value (%); argument: CN(C)C=O [DMF, dimethylformamide]
## Output 100

## Input And the next one, C[S+](C)[O-] [DMSO, dimethyl sulfoxide] ?
## Output 97

## Input And the next one, `CO` ?
## Output 101

## Input And the next one, `CC(C)=O` ?
## Output 100

## Input And the next one, `CC(C)O` ?
## Output 97

## Input And the next one, `CC#N` ?
## Output 99

## Input And the next one, `CCO` ?
## Output 95
